# credit: ChEMBL document CHEMBL4513135

- Tested on: Escherichia coli
- assay.context: Concentration 32 ug.mL-1; ASSAY_TEST Inhibition of Bacterial Growth; detection method Absorption (OD600); MEDIA CAMHB; plate type 384well; NBS; CORNING #3640; time 18 hr
- Description: Antibacterial activity against Escherichia coli ATCC 25922 (CO-ADD:GN_001); MIC in CAMBH media using NBS plates, by OD(600)
Measured potencies and affinities stand elsewhere.
property: Inhibition (%)
Report the figure in % without appending any unit label.

Please review the entries below; each comes with its answer.
>>> observed_result("Nc1c2c(nc3c1C(c1ccccc1)CC(=O)N3)CCCC2 (configuration not stated)")
0.15
>>> observed_result("OCC(Cc1cnc[nH]1)NCc1ccccc1 (configuration not stated)")
2.95
>>> observed_result("N#CC(C#N)=Cc1ccc(Cl)cc1")
5.89

query: May I ask what Inhibition has been recorded for NNC(=O)c1cn(Cc2ccccc2)c2ccccc12 ?
result: 1.53

query: How about this molecule: CCOc1nc2nc(C)c(C(=O)O)cc2c(-c2ccccc2)c1C#N
result: -10.47

query: How about this molecule: CC1CC(=O)Nc2nc3c(c(N)c21)CCCC3 (configuration not stated)
result: -10.32

query: How about this molecule: CCOC(=O)c1cc2cc(OC(=O)NC3CCN(Cc4ccccc4)CC3)ccc2[nH]1
result: -6.09

query: How about this molecule: Cl.ClCCN1CCCCC1
result: 20.05

query: How about this molecule: C#CCN(C)Cc1cc2cc(OC(=O)N(C)C)ccc2n1C
result: -5.14

query: How about this molecule: CCOC(=O)C1=C(OC)OC(=O)CC1c1ccccc1 (configuration not stated)
result: -6.33

query: How about this molecule: Nc1c2c(nc3ccccc13)CCN(Cc1ccccc1)C2
result: 1.56

query: How about this molecule: C#CCN1CCc2nc3nc(Cl)c(C#N)cc3c(N)c2C1
result: -10.74
